FYI, the data here is from the supplement of paper PMC8617591.

- Test system: Mycobacterium tuberculosis Erdman (autoluminescent)
- method_summary: AUC25, normalised area under dose response up to IC25 (three-drug combination) (fraction (0-1)); higher = more potent at low dose
- measurement_context: in vitro model: acidic pH 5.7; time point: terminal (~4-5 doublings, model-specific)
Catalogue of compounds with associated AUC25
readout_name: AUC25

compound="COc1nc2ccc(Br)cc2cc1[C@@H](c1ccccc1)[C@@](O)(CCN(C)C)c1cccc2ccccc12 [bedaquiline] + NNC(=O)c1ccncc1 [isoniazid] + CO[C@H]1/C=C/O[C@@]2(C)Oc3c(C)c(O)c4c(O)c(c(/C=N/N5CCN(C6CCCC6)CC5)c(O)c4c3C2=O)NC(=O)/C(C)=C\\C=C\\[C@H](C)[C@H](O)[C@@H](C)[C@@H](O)[C@@H](C)[C@H](OC(C)=O)[C@@H]1C [rifapentine]" readout_name=AUC25 recorded_measurement=0.0903
compound="NNC(=O)c1ccncc1 [isoniazid] + COc1c(N2C[C@@H]3CCCN[C@@H]3C2)c(F)cc2c(=O)c(C(=O)O)cn(C3CC3)c12 [moxifloxacin] + O=[N+]([O-])c1cn2c(n1)OC[C@@H](OCc1ccc(OC(F)(F)F)cc1)C2 [pretomanid]" readout_name=AUC25 recorded_measurement=0.0907
